Assay: in vitro
Format: cell-based
Details: human; 50% reduction of firefly luciferase expression, 3 days incubation; read-out: Replicon CC50
Quantity: CC50 at 3 days

- Smiles Notation: "Cn1ccnc1-c1cc2nccc(O[C@@H]3C[C@H]4C(=O)N[C@]5(C(=O)O)C[C@H]5/C=C\\CCCCC[C@H](NC(=O)CC5CC5)C(=O)N4C3)c2s1"
  Result: "> 320 µM"
- Smiles Notation: "Cc1cc(-c2nc(O[C@@H]3C[C@H]4C(=O)N[C@]5(C(=O)O)C[C@H]5/C=C\\CCCCC[C@H](NC(=O)CC5CC5)C(=O)N4C3)c3sccc3n2)n(C)n1"
  Result: "> 320 µM"
- Smiles Notation: "Cc1cc(-c2nc(O[C@@H]3C[C@H]4C(=O)N[C@]5(C(=O)O)C[C@H]5/C=C\\CCCCC[C@H](NC(=O)O[C@H]5CCOC5)C(=O)N4C3)c3sccc3n2)n(C)n1"
  Result: "> 320 µM"
